test system: S. aureus-infected mice; parameters: species or system female Kunming mice; conditions: mouse, in vivo
No end group written: not given here.
endpoint label: Abscess/Blood ratio

- substance: "[^99mTc]TcN-CN5UBI 29-41: ^99mTc complex of ligand CN5UBI 29-41 with the [^99mTc][Tc(V)N]^2+ core (TGRAKRRMQYNRR; also: CN5 chelator, position not given here, 99mTc complex with [99mTc][Tc(V)N]2+ core; UniProt P62861 103-115, looked up, fragment)"
  observed: 0.69
- substance: "[^99mTc]TcN-CN7UBI 29-41: ^99mTc complex of ligand CN7UBI 29-41 with the [^99mTc][Tc(V)N]^2+ core (TGRAKRRMQYNRR; also: CN7 chelator, position not given here, 99mTc complex with [99mTc][Tc(V)N]2+ core; UniProt P62861 103-115, looked up, fragment)"
  observed: 0.58
- substance: "[^99mTc]Tc-CN6UBI 29-41: ^99mTc complex of ligand CN6UBI 29-41 with the [^99mTc]Tc(I)^+ core (TGRAKRRMQYNRR; also: CN6 chelator, position not given here, 99mTc(I) complex; UniProt P62861 103-115, looked up, fragment)"
  observed: 0.75

====

Abscess/Blood ratio values, listed per item
tested on: S. aureus-infected mice; set-up: species or system female Kunming mice; conditions: mouse, in vivo
No end group written: not given here.

- substance: "[^99mTc]Tc-CN7UBI 29-41: ^99mTc complex of ligand CN7UBI 29-41 with the [^99mTc]Tc(I)^+ core (TGRAKRRMQYNRR; also: CN7 chelator, position not given here, 99mTc(I) complex; UniProt P62861 103-115, looked up, fragment)"
  Abscess/Blood ratio: 0.56
- substance: "[^99mTc]TcN-CN6UBI 29-41: ^99mTc complex of ligand CN6UBI 29-41 with the [^99mTc][Tc(V)N]^2+ core (TGRAKRRMQYNRR; also: CN6 chelator, position not given here, 99mTc complex with [99mTc][Tc(V)N]2+ core; UniProt P62861 103-115, looked up, fragment)"
  Abscess/Blood ratio: 0.70
- substance: "[^99mTc]Tc-CN8UBI 29-41: ^99mTc complex of ligand CN8UBI 29-41 with the [^99mTc]Tc(I)^+ core (TGRAKRRMQYNRR; also: CN8 chelator, position not given here, 99mTc complex with [99mTc]Tc(I)+ core; UniProt P62861 103-115, looked up, fragment)"
  Abscess/Blood ratio: 0.66

====

test system: S. aureus-infected mice; design: species or system female Kunming mice; conditions: mouse, in vivo
No end group written: not given here.
endpoint label: Abscess/Muscle ratio (target-to-nontarget ratio)

- substance: "[^99mTc]TcN-CN7UBI 29-41: ^99mTc complex of ligand CN7UBI 29-41 with the [^99mTc][Tc(V)N]^2+ core (TGRAKRRMQYNRR; also: CN7 chelator, position not given here, 99mTc complex with [99mTc][Tc(V)N]2+ core; UniProt P62861 103-115, looked up, fragment)"
  observed: 2.47
- substance: "[^99mTc]Tc(CO)3-CN6UBI 29-41: ^99mTc complex of ligand CN6UBI 29-41 with the [^99mTc][Tc(I)(CO)3(H2O)3]^+ core (TGRAKRRMQYNRR; also: CN6 chelator, position not given here, 99mTc(CO)3 complex; UniProt P62861 103-115, looked up, fragment)"
  observed: 2.48
- substance: "[^99mTc]Tc(CO)3-CN5UBI 29-41: ^99mTc complex of ligand CN5UBI 29-41 with the [^99mTc][Tc(I)(CO)3(H2O)3]^+ core (TGRAKRRMQYNRR; also: CN5 chelator, position not given here, 99mTc(CO)3 complex; UniProt P62861 103-115, looked up, fragment)"
  observed: 2.49

// data source = paper PMC10816394
